Data provenance: the supplement of paper PMC10307832

- Tested on: SW 1573
- Method description: relative viability (nuclei count vs DMSO), 5 days (fraction); higher = more cells survive
- Conditions used: first compound 0.05 µM
Outcome measure: relative viability
Respond using a number only.

Provide value of relative viability for this record tested with SW 1573: Nc1ccn([C@@H]2O[C@H](CO)[C@@H](O)[C@@H]2O)c(=O)n1 [Cytarabine] + CS(=O)(=O)CCNCc1ccc(-c2ccc3ncnc(Nc4ccc(OCc5cccc(F)c5)c(Cl)c4)c3c2)o1 [Lapatinib] (partner 2 µM)
0.952

Please tell me: relative viability of COc1cc2nccc(Oc3ccc(NC(=O)Nc4cc(C)on4)c(Cl)c3)c2cc1OC [Tivozanib] + CCNC(=O)c1noc(-c2cc(C(C)C)c(O)cc2O)c1-c1ccc(CN2CCOCC2)cc1 [Luminespib] (partner 0.01 µM) , system SW 1573?
0.248

Field: relative viability (SW 1573). Entry: Nc1ccn([C@@H]2O[C@H](CO)[C@@H](O)[C@@H]2O)c(=O)n1 [Cytarabine] + CCNC(=O)c1noc(-c2cc(C(C)C)c(O)cc2O)c1-c1ccc(CN2CCOCC2)cc1 [Luminespib] (partner 0.01 µM)
0.285
